FYI, the data here is from patent US7985755B2.

As shown below, each of these compounds has a reported EC50 value.
System: SMN2 promoter
assay_info: SMN2 promoter assay in NSC-34 cells (β-lactamase reporter)
Type: cell-based, mouse
experimental_parameters: Mus musculus, Table 6, SMN2 promoter driving β-lactamase, read-out: Promoter Assay EC50
measured_parameter: EC50

- compound: "CC(C)(Oc1cccc2nc(N)nc(N)c12)C1CCN(Cc2c(Cl)cccc2Cl)CC1"
  value_observed: "< 1000 nM"
- compound: "CC(C)(Oc1cccc2nc(N)nc(N)c12)C1CCN(Cc2c(F)cccc2Cl)CC1"
  value_observed: "< 1000 nM"
- compound: "CC1CC(COc2cccc3nc(N)nc(N)c23)CC(C)N1Cc1c(F)cccc1Cl (centres unmarked)"
  value_observed: "< 1000 nM"
- compound: "CC1CC(COc2cccc3nc(N)nc(N)c23)CC(C)N1Cc1ccccc1F (centres unmarked)"
  value_observed: "< 1000 nM"
- compound: "Nc1nc(N)c2c(OCC3CC[N+]([O-])(Cc4ccccc4F)CC3)cccc2n1 (centres unmarked)"
  value_observed: "1000 to 5000 nM"
